The origin of these recorded values is the supplement of paper PMC4862054.

Entries and their normalised viability values follow.
system: MDA-MB-468; assay: normalised viability (% of control), CellTiter-Blue; higher = more viable cells (100 = DMSO, 0 = benzethonium chloride kill control); conditions: incubation time: 72 h
Reply with the number, then its unit.

Lab request: please report normalised viability under test system MDA-MB-468 for CO[C@H]1C[C@@H]2CC[C@@H](C)[C@@](O)(O2)C(=O)C(=O)N2CCCC[C@H]2C(=O)O[C@H]([C@H](C)C[C@@H]2CC[C@@H](OP(C)(C)=O)[C@H](OC)C2)CC(=O)[C@H](C)/C=C(\C)[C@@H](O)[C@@H](OC)C(=O)[C@H](C)C[C@H](C)/C=C/C=C/C=C/1C [Ridaforolimus] (0.1 nM) 96.8%

Lookup: normalised viability / MDA-MB-468 / O=P1(N(CCCl)CCCl)NCCCO1 (stereo not given) [Cyclophosphamide] (4 nM) 98.9%

// fetch MDA-MB-468 normalised viability for CC(C)C[C@@H](C(=O)N[C@H](C(=O)OC1CCCC1)c1ccccc1)[C@H](O)C(=O)NO [Tosedostat] (1 nM) 111%

Fill in the recorded normalised viability for this compound, with MDA-MB-468 as test system: COc1cc2/c(=N/c3ccc(Br)cc3F)nc[nH]c2cc1OCC1CCN(C)CC1 [Vandetanib] (1 nM) 94.9%

Checklist item: normalised viability tested on MDA-MB-468, entry Nc1cc(C(F)(F)F)c(-c2cc(N3CCOCC3)nc(N3CCOCC3)n2)cn1 [BKM-120] (1 nM) , value? 96.6%
